Data origin, for the record: ChEMBL document CHEMBL4387722

Parameter 'readout' = pIC50; parameter 'system' = Tyrosine-protein phosphatase non-receptor type 1 (Homo sapiens, UniProt P18031).
Sequence (P18031 whole entry): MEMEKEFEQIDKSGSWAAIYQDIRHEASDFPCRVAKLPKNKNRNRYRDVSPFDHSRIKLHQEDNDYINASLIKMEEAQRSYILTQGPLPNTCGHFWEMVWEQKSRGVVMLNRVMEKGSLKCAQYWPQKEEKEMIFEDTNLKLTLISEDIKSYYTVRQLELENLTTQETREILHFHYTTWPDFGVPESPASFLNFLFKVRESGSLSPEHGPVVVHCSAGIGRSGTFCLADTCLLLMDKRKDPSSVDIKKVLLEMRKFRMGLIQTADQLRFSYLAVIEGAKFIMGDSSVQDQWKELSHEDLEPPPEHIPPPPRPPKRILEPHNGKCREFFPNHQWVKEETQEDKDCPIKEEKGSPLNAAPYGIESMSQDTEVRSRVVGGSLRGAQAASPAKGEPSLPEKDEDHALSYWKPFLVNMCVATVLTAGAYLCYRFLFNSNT
pIC50: −log10 of the molar value.

compound-smiles | inequality-operator | pIC50
O=S(=O)(Nc1ccc2oc(-c3ccc(NS(=O)(=O)c4cccc5nonc45)cc3)nc2c1)c1ccc(Cl)s1 | = | 4.82
Cc1cccc(S(=O)(=O)Nc2ccc(-c3nc4ccccc4o3)cc2)c1 | = | 4.43
Cc1ccccc1S(=O)(=O)Nc1ccc(-c2nc3ccccc3o2)cc1 | = | 4.28
Cc1ccc(S(=O)(=O)Nc2ccc3oc(-c4ccccc4)nc3c2)cc1 | = | 4.32
O=S(=O)(Nc1ccc(-c2nc3ccccc3o2)cc1)c1ccc(Cl)cc1 | = | 4.37
O=S(=O)(Nc1ccc(-c2nc3ccccc3o2)cc1)c1ccc(F)c(C(F)(F)F)c1 | = | 4.40
COc1ccc(Cl)cc1S(=O)(=O)Nc1ccc(-c2nc3cc(NS(=O)(=O)c4ccc(Cl)s4)ccc3o2)cc1 | = | 5.19
O=S(=O)(Nc1ccc2oc(-c3ccccc3)nc2c1)c1cccc(C(F)(F)F)c1 | = | 4.08
O=S(=O)(Nc1ccc(-c2nc3cc(NS(=O)(=O)c4ccc(Cl)s4)ccc3o2)cc1)c1ccc(Cl)s1 | = | 4.96
COc1ccc(Cl)cc1S(=O)(=O)Nc1ccc2oc(-c3ccccc3)nc2c1 | = | 4.57
O=S(=O)(Nc1ccc(-c2nc3cc(NS(=O)(=O)c4cccc5ccccc45)ccc3o2)cc1)c1cccc2ccccc12 | = | 5.49
O=S(=O)(Nc1ccc(-c2nc3ccccc3o2)cc1)c1ccc(Cl)c(Cl)c1 | = | 4.54
O=C(O)c1cccc(S(=O)(=O)Nc2ccc(-c3nc4cc(NS(=O)(=O)c5cccc(C(=O)O)c5)ccc4o3)cc2)c1 | < | 4.00
O=S(=O)(Nc1ccc2oc(-c3ccccc3)nc2c1)c1ccccc1F | = | 4.23
O=S(=O)(Nc1ccc(-c2nc3cc(NS(=O)(=O)c4ccc(Cl)s4)ccc3o2)cc1)c1ccc(Br)cc1 | = | 5.06
O=S(=O)(Nc1ccc(-c2nc3ccccc3o2)cc1)c1cccc(C(F)(F)F)c1 | = | 4.36
COc1ccccc1S(=O)(=O)Nc1ccc(-c2nc3cc(NS(=O)(=O)c4ccccc4OC)ccc3o2)cc1 | = | 4.92
O=[N+]([O-])c1cc(S(=O)(=O)Nc2ccc(-c3nc4cc(NS(=O)(=O)c5ccc(Cl)s5)ccc4o3)cc2)ccc1Cl | = | 5.10
